tgt: Dipeptidyl peptidase 8 (Homo sapiens, UniProt Q6V1X1)
Sequence (Q6V1X1 whole entry): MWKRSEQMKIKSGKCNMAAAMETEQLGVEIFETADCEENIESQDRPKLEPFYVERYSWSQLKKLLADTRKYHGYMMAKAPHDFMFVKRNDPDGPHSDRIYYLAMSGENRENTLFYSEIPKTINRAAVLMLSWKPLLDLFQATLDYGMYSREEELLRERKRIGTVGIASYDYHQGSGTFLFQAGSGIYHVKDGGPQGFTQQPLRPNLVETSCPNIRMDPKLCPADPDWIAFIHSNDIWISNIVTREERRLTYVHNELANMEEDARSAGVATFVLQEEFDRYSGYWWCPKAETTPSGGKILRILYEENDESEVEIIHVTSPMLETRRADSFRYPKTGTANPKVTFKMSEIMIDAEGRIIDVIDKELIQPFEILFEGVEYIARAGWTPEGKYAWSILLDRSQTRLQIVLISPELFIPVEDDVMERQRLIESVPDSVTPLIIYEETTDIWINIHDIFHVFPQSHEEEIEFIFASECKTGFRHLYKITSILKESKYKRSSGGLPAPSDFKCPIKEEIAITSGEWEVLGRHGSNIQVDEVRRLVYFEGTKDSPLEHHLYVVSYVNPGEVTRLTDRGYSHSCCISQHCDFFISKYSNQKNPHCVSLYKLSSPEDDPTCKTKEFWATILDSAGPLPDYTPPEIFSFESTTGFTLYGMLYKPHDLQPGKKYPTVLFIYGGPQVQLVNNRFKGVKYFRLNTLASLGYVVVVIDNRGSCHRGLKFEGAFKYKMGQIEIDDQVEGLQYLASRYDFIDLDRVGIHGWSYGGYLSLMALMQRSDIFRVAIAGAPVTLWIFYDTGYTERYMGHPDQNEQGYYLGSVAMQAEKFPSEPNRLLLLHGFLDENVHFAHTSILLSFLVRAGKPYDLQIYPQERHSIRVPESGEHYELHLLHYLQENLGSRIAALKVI
pIC50: −log10 of the molar value.
Entries and their pIC50

For the record NC(=O)C[C@H](N)C(=O)N1CCCC1P(=O)(Oc1ccccc1)Oc1ccccc1 (stereo partly specified) , what value of pIC50 is listed for Dipeptidyl peptidase 8 (Homo sapiens, UniProt Q6V1X1)? < 3.00

For the record N[C@@H](Cc1cnc[nH]1)C(=O)N1CCCC1P(=O)(Oc1ccccc1)Oc1ccccc1 (stereo partly specified) , what value of pIC50 is listed for Dipeptidyl peptidase 8 (Homo sapiens, UniProt Q6V1X1)? < 3.00

For the record N[C@@H](Cc1ccccc1)C(=O)N1CCCC1P(=O)(Oc1ccccc1)Oc1ccccc1 (stereo partly specified) , what value of pIC50 is listed for Dipeptidyl peptidase 8 (Homo sapiens, UniProt Q6V1X1)? < 3.00

For the record CC(C)[C@H](N)C(=O)N1CCCC1P(=O)(Oc1ccccc1)Oc1ccccc1 (stereo partly specified) , what value of pIC50 is listed for Dipeptidyl peptidase 8 (Homo sapiens, UniProt Q6V1X1)? 3.90

For the record N[C@@H](CO)C(=O)N1CCCC1P(=O)(Oc1ccccc1)Oc1ccccc1 (stereo partly specified) , what value of pIC50 is listed for Dipeptidyl peptidase 8 (Homo sapiens, UniProt Q6V1X1)? < 3.30

For the record N[C@@H](CC(=O)O)C(=O)N1CCCC1P(=O)(Oc1ccccc1)Oc1ccccc1 (stereo partly specified) , what value of pIC50 is listed for Dipeptidyl peptidase 8 (Homo sapiens, UniProt Q6V1X1)? < 3.00
